Target: Histone deacetylase 3 (Homo sapiens)
Sequence (O15379 whole entry): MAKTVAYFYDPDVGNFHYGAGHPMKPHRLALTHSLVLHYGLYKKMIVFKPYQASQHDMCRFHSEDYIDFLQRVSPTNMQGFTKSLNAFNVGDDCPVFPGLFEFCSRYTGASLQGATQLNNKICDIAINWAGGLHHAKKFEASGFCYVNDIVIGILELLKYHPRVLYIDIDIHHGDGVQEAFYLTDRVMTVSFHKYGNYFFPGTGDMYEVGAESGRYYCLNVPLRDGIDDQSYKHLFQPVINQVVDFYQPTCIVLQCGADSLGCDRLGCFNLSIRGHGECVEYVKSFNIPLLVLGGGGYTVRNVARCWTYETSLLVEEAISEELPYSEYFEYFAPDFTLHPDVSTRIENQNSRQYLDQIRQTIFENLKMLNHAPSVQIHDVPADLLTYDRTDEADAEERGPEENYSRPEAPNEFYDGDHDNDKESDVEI
Test: Allosteric inhibition of C-terminal His-tagged recombinant human HDAC3 expressed in Sf9 cells pre-incubated for 2 hrs before acetylated lysine-aminomethyl coumarin-BOC addition and measured after 2 hrs by fluorescence based assay
IC50 by entry:

>>> result("CCCCNNC(=O)c1cccc2ccccc12")
"> 10 µM"
>>> result("C/C=C/CNNC(=O)c1ccc(CNC(=O)c2ccccc2)cc1")
"1.55 µM"
>>> result("CC(C)NNC(=O)c1ccc(CNC(=O)c2ccccc2)cc1")
"> 10 µM"

Prompt line: Look up IC50: CC/C=N/NC(=O)c1ccc(CNC(=O)c2ccccc2)cc1
Response line: > 10 µM

The reported measurements were obtained from ChEMBL document CHEMBL4680089.
